Molecular target: Human serum albumin (HSA) (Homo sapiens, UniProt P02768)
Construct: Essentially fatty acid-free HSA, type A1887 (Sigma-Aldrich)
Sequence (P02768 25-609): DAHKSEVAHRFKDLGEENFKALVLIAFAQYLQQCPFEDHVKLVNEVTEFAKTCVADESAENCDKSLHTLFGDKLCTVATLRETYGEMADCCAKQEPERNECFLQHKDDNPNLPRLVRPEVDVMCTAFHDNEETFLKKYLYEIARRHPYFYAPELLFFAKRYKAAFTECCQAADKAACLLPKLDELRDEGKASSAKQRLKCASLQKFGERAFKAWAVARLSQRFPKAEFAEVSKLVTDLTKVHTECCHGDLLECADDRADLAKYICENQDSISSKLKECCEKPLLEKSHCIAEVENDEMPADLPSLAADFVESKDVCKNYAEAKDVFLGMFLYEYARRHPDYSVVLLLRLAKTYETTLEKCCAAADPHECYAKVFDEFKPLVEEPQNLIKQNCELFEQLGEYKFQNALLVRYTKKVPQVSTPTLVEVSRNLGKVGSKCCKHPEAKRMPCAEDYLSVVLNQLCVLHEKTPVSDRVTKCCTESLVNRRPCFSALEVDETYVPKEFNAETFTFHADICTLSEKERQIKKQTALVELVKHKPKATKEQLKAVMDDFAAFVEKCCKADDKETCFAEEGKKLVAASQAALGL
Assay: intrinsic tryptophan fluorescence quenching (binding constant Ka, […]°C), synchronous fluorescence, thermal shift (Tm +[…]°C)
PARAMETER MEASURED: pKd
Notebook: values listed as pKd are -log10 of the concentration (mol/L).

*Q* Sample CC(=O)O[C@H]1C2=C(C(=O)C(O)=C(C(C)C)C2=O)[C@@]2(C)CCCC(C)(C)[C@@H]2[C@@H]1O [compound 1, 7α-acetoxy-6β-hydroxyroyleanone] — what was its pKd?
*A* 4.81
